Assay: Solubility of free base and salts in 6 different media (UPLC-UV)
Assay type: physicochemical
Conditions: Transcutol/Water 10/90 (v/v), aqueous with cosolvent or surfactant or cyclodextrin, thermodynamic from solid, Transcutol/Water 10/90 (v/v); target concentration 30 mg/ml; room temperature, 24 h; read-out: Solubility, Transcutol/Water 10/90 (v/v)
experimentalReadout: solubility at 24 h

molecule: CC(C)CC(C)n1nc(-c2ccc3oc(N)nc3c2)c2c(N)nc(N)nc21.O=C(O)C[C@H](O)C(=O)O (centres unmarked) [Malate Salt]
result: 3100 µg/mL

Then there is this molecule:
# solubility at 24 h (molecule: CC(C)CC(C)n1nc(-c2ccc3oc(N)nc3c2)c2c(N)nc(N)nc21.O=C(O)CC(=O)O (centres unmarked) [Malonate Salt] ) is 3700 µg/mL

* * *

Assay: Solubility of free base and salts in 6 different media (UPLC-UV)
Assay type: physicochemical
Conditions: glycerin, organic solvent or mixture, thermodynamic from solid, glycerin; target concentration 30 mg/ml; room temperature, 24 h; read-out: Solubility, Glycerin
# reported solubility at 24 h; entries follow
Your answer should be a plain number; it is taken to be in mg/mL.

molecule: CC(C)CC(C)n1nc(-c2ccc3oc(N)nc3c2)c2c(N)nc(N)nc21.O=C(O)CC(=O)O (centres unmarked) [Malonate Salt]
solubility at 24 h [mg/mL]: 24.7

Now take the following molecule into account.
Sure, the documented solubility at 24 h for CC(C)CC(C)n1nc(-c2ccc3oc(N)nc3c2)c2c(N)nc(N)nc21.O=C(O)C[C@H](O)C(=O)O (centres unmarked) [Malate Salt] is 21.1

* * *

Experiment: Solubility of free base and salts in 6 different media (UPLC-UV)
Assay type: physicochemical
Details: Glycerin/Water 5/95 (v/v), aqueous with cosolvent or surfactant or cyclodextrin, thermodynamic from solid, Glycerin/Water 5/95 (v/v); target concentration 30 mg/ml; room temperature, 24 h; read-out: Solubility, Glycerin/Water 5/95 (v/v)
Procedure: The following protocol has been used to prepare samples for solubility measurements at room temperature in the 6 different media. First, weigh appropriate amount of each salt and free base compound to reach the desired target concentration (30 mg/ml). […] Quantification of the diluted and undiluted samples was performed using UPLC-UV. […]
experimentalReadout: solubility at 24 h (µg/mL)
Field: numeric (µg/mL). Do not append units.

molecule: CC(C)CC(C)n1nc(-c2ccc3oc(N)nc3c2)c2c(N)nc(N)nc21.O=C(O)C[C@H](O)C(=O)O (centres unmarked) [Malate Salt]
solubility at 24 h, µg/mL: 2100

Please examine the following record next.
// sample CC(C)CC(C)n1nc(-c2ccc3oc(N)nc3c2)c2c(N)nc(N)nc21.O=C(O)CC(=O)O (centres unmarked) [Malonate Salt] , its solubility at 24 h was 2700

* * *

Assay: Solubility of free base and salts in 6 different media (UPLC-UV)
Assay type: physicochemical
Conditions: Glycerin/Water 20/80 (v/v), aqueous with cosolvent or surfactant or cyclodextrin, thermodynamic from solid, Glycerin/Water 20/80 (v/v); target concentration 30 mg/ml; room temperature, 24 h; read-out: Solubility, Glycerin/Water 20/80 (v/v)
experimentalReadout: solubility at 24 h
Respond with a number, then the unit of measure.

molecule: CC(C)CC(C)n1nc(-c2ccc3oc(N)nc3c2)c2c(N)nc(N)nc21.O=C(O)C[C@H](O)C(=O)O (centres unmarked) [Malate Salt]
solubility at 24 h: 2900 µg/mL

Please turn your attention to the following entry.
solubility at 24 h for CC(C)CC(C)n1nc(-c2ccc3oc(N)nc3c2)c2c(N)nc(N)nc21.O=C(O)CC(=O)O (centres unmarked) [Malonate Salt] is 3500 µg/mL
